- Assay Details: Long-term stability in spiked pooled human plasma
- Setup Conditions: validation standard MOV
Metric: Long-term stability, 3 month, -20°C Accuracy [%]

{"Compound": "C[C@H]1Oc2cc(cnc2N)-c2c(nn(C)c2C#N)CN(C)C(=O)c2ccc(F)cc21", "Endpoint Value": "90.9%"}
{"Compound": "CNC(=O)c1ccccc1Sc1ccc2c(/C=C/c3ccccn3)n[nH]c2c1", "Endpoint Value": "95.9%"}
{"Compound": "CC(C)(C)c1nc(-c2cccc(NS(=O)(=O)c3c(F)cccc3F)c2F)c(-c2ccnc(N)n2)s1", "Endpoint Value": "100.3%"}
{"Compound": "Nc1cccc2c1C(=O)N(C1CCC(=O)NC1=O)C2=O (stereo not drawn) [Pomalidomide]", "Endpoint Value": "90.0%"}
{"Compound": "Cc1c(C(=O)Nc2ccc(N3C[C@@H](C)O[C@@H](C)C3)nc2)cccc1-c1ccc(OC(F)(F)F)cc1", "Endpoint Value": "95.1%"}
{"Compound": "Cc1cc(Nc2ncc(Cl)c(Nc3ccccc3S(=O)(=O)C(C)C)n2)c(OC(C)C)cc1C1CCNCC1", "Endpoint Value": "94.1%"}
{"Compound": "CS(=O)(=O)CCNCc1ccc(-c2ccc3ncnc(Nc4ccc(OCc5cccc(F)c5)c(Cl)c4)c3c2)o1", "Endpoint Value": "78.1%"}
{"Compound": "COc1cc2ncnc(Nc3ccc(F)c(Cl)c3)c2cc1NC(=O)/C=C/CN1CCCCC1", "Endpoint Value": "90.9%"}
{"Compound": "CN(C)C/C=C/C(=O)Nc1cc2c(Nc3ccc(F)c(Cl)c3)ncnc2cc1O[C@H]1CCOC1", "Endpoint Value": "78.2%"}

* * *

- Assay Details: Long-term stability in spiked pooled human plasma
- Setup Conditions: validation standard ULOV
Metric: Long-term stability, 6 weeks, 4°C, without daylight Accuracy [%] (%)

{"Molecule": "CCN(CC)CCNC(=O)c1c(C)[nH]c(/C=C2\\C(=O)Nc3ccc(F)cc32)c1C", "Endpoint Value": 105.4}
{"Molecule": "C[C@]12CC[C@H](O)CC1=CC[C@@H]1[C@@H]2CC[C@]2(C)C(c3cccnc3)=CC[C@@H]12", "Endpoint Value": 102.8}
{"Molecule": "CS(=O)(=O)c1ccc(C(=O)Nc2ccc(Cl)c(-c3ccccn3)c2)c(Cl)c1", "Endpoint Value": 96.5}
{"Molecule": "C=CC(=O)Nc1cc(Nc2nccc(-c3cn(C)c4ccccc34)n2)c(OC)cc1N(C)CCN(C)C", "Endpoint Value": 41.5}
{"Molecule": "Nc1cccc2c1CN(C1CCC(=O)NC1=O)C2=O (stereo not shown) [Lenalidomide]", "Endpoint Value": 16.2}
{"Molecule": "O=C(Nc1cnn2ccc(N3CCC[C@@H]3c3cc(F)ccc3F)nc12)N1CC[C@H](O)C1", "Endpoint Value": 98.0}
{"Molecule": "CC(=O)Nc1cccc(-n2c(=O)n(C3CC3)c(=O)c3c(Nc4ccc(I)cc4F)n(C)c(=O)c(C)c32)c1", "Endpoint Value": 94.7}
{"Molecule": "CO[C@@H]1[C@H](N(C)C(=O)c2ccccc2)C[C@H]2O[C@]1(C)n1c3ccccc3c3c4c(c5c6ccccc6n2c5c31)C(=O)NC4", "Endpoint Value": 97.3}
{"Molecule": "Nc1cccc2c1C(=O)N(C1CCC(=O)NC1=O)C2=O (stereo not shown) [Pomalidomide]", "Endpoint Value": 11.3}
{"Molecule": "CNC(=O)c1cc(Oc2ccc(NC(=O)Nc3ccc(Cl)c(C(F)(F)F)c3)c(F)c2)ccn1", "Endpoint Value": 95.5}
{"Molecule": "CNC(=O)c1ccc(N2C(=S)N(c3cnc(C#N)c(C(F)(F)F)c3)C(=O)C23CCC3)cc1F [Apalutamide]", "Endpoint Value": 48.1}
{"Molecule": "Cc1ccc(Nc2nccc(N(C)c3ccc4c(C)n(C)nc4c3)n2)cc1S(N)(=O)=O", "Endpoint Value": 98.9}
{"Molecule": "O=C(c1ccc(F)c(F)c1Nc1ccc(I)cc1F)N1CC(O)([C@@H]2CCCCN2)C1", "Endpoint Value": 102.4}

* * *

# reported Autosampler (24h, 4°C) Accuracy [%]; entries follow
- Assay Details: Autosampler stability of ready for injection samples
- Format: physicochemical, human
- Setup Conditions: validation standard LLOV
Metric: Autosampler (24h, 4°C) Accuracy [%] (%)

{"Compound": "CNC(=O)c1ccc(N2C(=S)N(c3cnc(C#N)c(C(F)(F)F)c3)C(=O)C23CCC3)cc1F [Apalutamide]", "Unit Label": "%", "Endpoint Value": 97.2}
{"Compound": "COc1cc2nccc(Oc3ccc(NC(=O)NC4CC4)c(Cl)c3)c2cc1C(N)=O", "Unit Label": "%", "Endpoint Value": 110.0}
{"Compound": "Cn1cnc2c(F)c(Nc3ccc(Br)cc3F)c(C(=O)NOCCO)cc21", "Unit Label": "%", "Endpoint Value": 103.1}
{"Compound": "CN(C)C/C=C/C(=O)Nc1cc2c(Nc3ccc(F)c(Cl)c3)ncnc2cc1O[C@H]1CCOC1", "Unit Label": "%", "Endpoint Value": 91.7}
{"Compound": "COc1cc(N2CCC(N3CCN(C)CC3)CC2)ccc1Nc1ncc(Cl)c(Nc2ccccc2P(C)(C)=O)n1", "Unit Label": "%", "Endpoint Value": 90.7}
{"Compound": "Cc1[nH]c2ccccc2c1CCNCc1ccc(/C=C/C(=O)NO)cc1", "Unit Label": "%", "Endpoint Value": 83.8}
{"Compound": "CNC(=O)c1ccccc1Sc1ccc2c(/C=C/c3ccccn3)n[nH]c2c1", "Unit Label": "%", "Endpoint Value": 105.9}
{"Compound": "CS(=O)(=O)c1ccc(C(=O)Nc2ccc(Cl)c(-c3ccccn3)c2)c(Cl)c1", "Unit Label": "%", "Endpoint Value": 84.9}
{"Compound": "CO[C@@H]1[C@H](N(C)C(=O)c2ccccc2)C[C@H]2O[C@]1(C)n1c3ccccc3c3c4c(c5c6ccccc6n2c5c31)C(=O)NC4", "Unit Label": "%", "Endpoint Value": 109.7}
{"Compound": "Cc1ccc(Nc2nccc(N(C)c3ccc4c(C)n(C)nc4c3)n2)cc1S(N)(=O)=O", "Unit Label": "%", "Endpoint Value": 101.3}
{"Compound": "CCN(CC)CCNC(=O)c1c(C)[nH]c(/C=C2\\C(=O)Nc3ccc(F)cc32)c1C", "Unit Label": "%", "Endpoint Value": 113.8}
{"Compound": "COc1cc2nccc(Oc3ccc(NC(=O)Nc4cc(C)on4)c(Cl)c3)c2cc1OC", "Unit Label": "%", "Endpoint Value": 94.0}
{"Compound": "O=C(c1cc(Cc2n[nH]c(=O)c3ccccc23)ccc1F)N1CCN(C(=O)C2CC2)CC1", "Unit Label": "%", "Endpoint Value": 111.6}
{"Compound": "CCOc1cc2ncc(C#N)c(Nc3ccc(OCc4ccccn4)c(Cl)c3)c2cc1NC(=O)/C=C/CN(C)C", "Unit Label": "%", "Endpoint Value": 75.2}
{"Compound": "COc1cc2c(Nc3ccc(Br)cc3F)ncnc2cc1OCC1CCN(C)CC1", "Unit Label": "%", "Endpoint Value": 85.9}
{"Compound": "CNC(=O)c1cc(Oc2ccc(NC(=O)Nc3ccc(Cl)c(C(F)(F)F)c3)c(F)c2)ccn1", "Unit Label": "%", "Endpoint Value": 107.3}
{"Compound": "N#CC[C@H](C1CCCC1)n1cc(-c2ncnc3[nH]ccc23)cn1", "Unit Label": "%", "Endpoint Value": 93.9}
{"Compound": "COc1cc2nccc(Oc3ccc(NC(=O)C4(C(=O)Nc5ccc(F)cc5)CC4)cc3)c2cc1OC [Cabozantinib]", "Unit Label": "%", "Endpoint Value": 92.0}
{"Compound": "O=c1[nH]c(=O)n([C@H]2C[C@H](O)[C@@H](CO)O2)cc1C(F)(F)F", "Unit Label": "%", "Endpoint Value": 97.0}
{"Compound": "Nc1cccc2c1C(=O)N(C1CCC(=O)NC1=O)C2=O (centres unmarked) [Pomalidomide]", "Unit Label": "%", "Endpoint Value": 104.9}
{"Compound": "CNC(=O)c1ccc(N2C(=S)N(c3ccc(C#N)c(C(F)(F)F)c3)C(=O)C2(C)C)cc1F [Enzalutamide]", "Unit Label": "%", "Endpoint Value": 89.9}
{"Compound": "Cc1nc(Nc2ncc(C(=O)Nc3c(C)cccc3Cl)s2)cc(N2CCN(CCO)CC2)n1", "Unit Label": "%", "Endpoint Value": 116.5}
{"Compound": "C[C@]12CC[C@H](O)CC1=CC[C@@H]1[C@@H]2CC[C@]2(C)C(c3cccnc3)=CC[C@@H]12", "Unit Label": "%", "Endpoint Value": 90.8}
{"Compound": "O=C(c1ccc(F)c(F)c1Nc1ccc(I)cc1F)N1CC(O)([C@@H]2CCCCN2)C1", "Unit Label": "%", "Endpoint Value": 94.6}
{"Compound": "Cc1cn(-c2cc(NC(=O)c3ccc(C)c(Nc4nccc(-c5cccnc5)n4)c3)cc(C(F)(F)F)c2)cn1", "Unit Label": "%", "Endpoint Value": 88.1}
{"Compound": "COC(=O)N[C@@H](C)CNc1nccc(-c2cn(C(C)C)nc2-c2cc(Cl)cc(NS(C)(=O)=O)c2F)n1", "Unit Label": "%", "Endpoint Value": 87.7}
{"Compound": "O=C(Nc1cnn2ccc(N3CCC[C@@H]3c3cc(F)ccc3F)nc12)N1CC[C@H](O)C1", "Unit Label": "%", "Endpoint Value": 79.4}
{"Compound": "O=C1CCC(N2C(=O)c3ccccc3C2=O)C(=O)N1 (centres unmarked) [Thalidomide]", "Unit Label": "%", "Endpoint Value": 98.2}
{"Compound": "CCCS(=O)(=O)Nc1ccc(F)c(C(=O)c2c[nH]c3ncc(-c4ccc(Cl)cc4)cc23)c1F", "Unit Label": "%", "Endpoint Value": 112.7}
{"Compound": "NC(=O)c1cccc2cn(-c3ccc([C@@H]4CCCNC4)cc3)nc12", "Unit Label": "%", "Endpoint Value": 96.8}
{"Compound": "CNCc1ccc(-c2[nH]c3cc(F)cc4c3c2CCNC4=O)cc1", "Unit Label": "%", "Endpoint Value": 104.5}
{"Compound": "C=CC(=O)Nc1cc(Nc2nccc(-c3cn(C)c4ccccc34)n2)c(OC)cc1N(C)CCN(C)C", "Unit Label": "%", "Endpoint Value": 90.3}
